testedSystem: T1, KP1.2 peptide of the D2E2 loop of the Nav1.7 channel (human, not fully specified)
T1 construct: also called human NAV1.7 peptide
T1 peptide: H-VELFLADVEGC-NH2
assayProtocol: DELFIA: KP1.2 peptide on streptavidin plate, purified antibody undiluted, Eu-labelled anti-human IgG, time-resolved fluorescence at 615 nm
Protocol: Four mice were immunised substantially as detailed in Table 6. The immunisations of Boost 6 each used 3 μg of KP1.2-KLH and 3 μg KP5.1-KLH, adjuvanted with IFA, CpG and Alum as set out in Table 6. A seventh booster immunisation was added, which consisted of 2 μg of KP1.2-KLH and 2 μg KP5.1-KLH, adjuvanted with IFA, CpG and Alum as set out in Table 6. Antibodies were isolated from these mice. […]

{"binder": "28B08 (antibody, V domains shown, Detected with anti-human IgG; also called 28608) VH: QVQLVQSGAEVRKPGASVKVSCKASGYTFTDYALHWVRQAPGQRLEWMGWIIVGNGKTRYAQKFQGRVTITWETSASTAFVDLNSLRSEDTAVYYCARGFTMVRGAPYYDGLDVWGQGTTVTVSS VL: DIVMTQSPLSLSVTPGEPASISCRSSQSLLYSTGYNYLDWYLQKPGLSPQLLIYLGSNRASGVPDRFSGSGSGTDFTLKISRVEAEDVGFYYCMQALQAPTFGGGTKVEIK", "binding result": "binds"}
{"binder": "32D04 (antibody, V domains shown, Detected with anti-human IgG) VH: QVQLVQSGPEVRNPGASVRVSCKASGYTFTDYALHWVRQAPGQRLEWMGWIIVGNGKTRYAQKFQGRVTITWETSASTAFMDLSSLRSEDTAVYYCARGFTMVRGAPYYDGLDVWGQGTTVTISS VL: DIVMTQSPLSLPVSPGEPASISCRSSQSLLYSTGYNYLDWYLQKPGLSPQLLIYLGSIRASGVPDRFSGSGSGTDFTLSISRVEAEDVGIYYCMQALQTPTFGGGTKVEIK", "binding result": "binds"}
